Assay: Solubility of the crystalline form in buffers, SGF, FaSSIF, FeSSIF and water at 37° C. (HPLC; XRPD of undissolved solid)
Type: physicochemical
Conditions: sodium acetate trihydrate buffer, 37 °C, pH 4.5, aqueous buffer, thermodynamic from solid
quantity: solubility at 2 h (µg/mL)
Give bare numbers, in µg/mL.

Given C[C@@H](N)COc1ccc(-c2cnc3ccc(N[C@H](C)c4cccc(F)c4)nn23)cc1 [crystalline form A of Compound 1 adipate] , state its recorded solubility at 2 h. 2840

* * *

Experiment: Solubility of the crystalline form in buffers, SGF, FaSSIF, FeSSIF and water at 37° C. (HPLC; XRPD of undissolved solid)
Assay type: physicochemical
Details: sodium acetate trihydrate buffer, 37 °C, pH 4.5, aqueous buffer, thermodynamic from solid
quantity: solubility at 24 h (µg/mL)
Answers are plain numbers, in µg/mL.

Would you kindly share the measured solubility at 24 h for C[C@@H](N)COc1ccc(-c2cnc3ccc(N[C@H](C)c4cccc(F)c4)nn23)cc1 [crystalline form A of Compound 1 adipate] ? 2880

* * *

Assay: Dynamic Vapor Sorption (DVS), hygroscopicity
Format: physicochemical
Settings: at 80% RH, 25±1° C.
quantity: weight increase (DVS) (%)
One number for each entry, in %.

molecule: C[C@@H](N)COc1ccc(-c2cnc3ccc(N[C@H](C)c4cccc(F)c4)nn23)cc1 [crystalline form D of Compound 1 free base]
unit info: %
weight increase (DVS): 2.896

Please find the next molecule below.
I would be grateful if you could share the reported weight increase (DVS) for C[C@@H](N)COc1ccc(-c2cnc3ccc(N[C@H](C)c4cccc(F)c4)nn23)cc1 [crystalline form A of Compound 1 adipate] . 0.235

* * *

Test: Dynamic Vapor Sorption (DVS), hygroscopicity
Format: physicochemical
Conditions: from DVS weight increase at 80% RH
quantity: hygroscopicity (in words)

Worked examples follow.
compound: C[C@@H](N)COc1ccc(-c2cnc3ccc(N[C@H](C)c4cccc(F)c4)nn23)cc1 [crystalline form C of Compound 1 adipate]
reported: low hygroscopicity
--
compound: C[C@@H](N)COc1ccc(-c2cnc3ccc(N[C@H](C)c4cccc(F)c4)nn23)cc1 [crystalline form B of Compound 1 adipate]
reported: has hygroscopicity
--
compound: C[C@@H](N)COc1ccc(-c2cnc3ccc(N[C@H](C)c4cccc(F)c4)nn23)cc1 [crystalline form B of Compound 1 free base]
reported: has hygroscopicity
--
compound: C[C@@H](N)COc1ccc(-c2cnc3ccc(N[C@H](C)c4cccc(F)c4)nn23)cc1 [crystalline form C of Compound 1 free base]
reported: has hygroscopicity

Now consider a different compound.
What measured hygroscopicity (in words) goes with C[C@@H](N)COc1ccc(-c2cnc3ccc(N[C@H](C)c4cccc(F)c4)nn23)cc1 [crystalline form D of Compound 1 adipate] ? low hygroscopicity

* * *

Experiment: Solubility of the crystalline form in buffers, SGF, FaSSIF, FeSSIF and water at 37° C. (HPLC; XRPD of undissolved solid)
Type: physicochemical
Conditions: FeSSIF (fed state simulated intestinal fluid), 37 °C, pH 5, fessif, thermodynamic from solid
From the text: (1) a KCl/HCl buffer solution with a pH of 1.0, (2) a potassium hydrogen phthalate buffer solution with a pH of 3.0, (3) a sodium acetate trihydrate buffer solution with a pH of 4.5, (4) a potassium dihydrogen phosphate buffer solution with a pH of 6.0, (5) a potassium dihydrogen phosphate buffer solution with a pH of 7.5, (6) SGF (simulated gastric fluid), (7) FaSSIF (fasted state simulated intestinal fluids, pH=6.5), (8) FeSSIF (fed state simulated intestinal fluids, pH=5.0), and (9) water. […]
quantity: solubility at 2 h (µg/mL)
One number for each entry, in µg/mL.

For C[C@@H](N)COc1ccc(-c2cnc3ccc(N[C@H](C)c4cccc(F)c4)nn23)cc1 [crystalline form A of Compound 1 adipate] , what is its reported solubility at 2 h? 493
